endpoint: melting point

Given the entry COC(=O)c1ccc(N2C(=O)CCC2(CN=[N+]=[N-])COC(=O)c2ccccc2)c([N+](=O)[O-])c1 (stereo not given) , report its measured melting point.
214 to 215 °C

Next:
Given the entry CC(C)C(=O)NC1CCc2c(c3cc(-c4nnc(N)s4)ccc3n2Cc2cccc(F)c2)C1 (stereo not given) , report its measured melting point.
251 to 254 °C

Would you kindly repeat that for CCC(F)c1cc(N2CCNCC2)cc(-c2ccccc2C#N)c1Cl (stereo not given) ?
159 °C

Would you kindly repeat that for `O=C(CN1CCC(Cc2ccccc2)CC1)Nc1ccc([N+](=O)[O-])cc1` ?
126 to 128 °C

Would you kindly repeat that for COC(=O)CCC(CCCCNS(=O)(=O)c1ccc(Cl)cc1)CCCc1cccnc1 (stereo not given) ?
81 to 82 °C

Would you kindly repeat that for `COc1ccc(C)cc1C(CCO)c1cc(C)ccc1OC` ?
117 °C

Would you kindly repeat that for `CCCCOCCOc1ccc(-c2ccc3c(c2)C=C(C(=O)O)CCN3S(C)(=O)=O)cc1` ?
208 to 210 °C

Would you kindly repeat that for C[C@@H](NC(=O)[C@@H](NC(=O)OCc1ccccc1)C(Cc1ccccc1)C(=O)O)C(=O)O (stereo not given in full) ?
158 to 159 °C

Would you kindly repeat that for ON=C1CCC(c2ccc(Cl)c(Cl)c2)c2ccccc21 (stereo not given) ?
159 to 162 °C

Would you kindly repeat that for `O=C(c1ccc(F)c(F)c1)N1CCC[C@H](c2nc(-c3ccc([N+](=O)[O-])cc3)no2)C1` ?
138 to 140 °C
